- Test system: HL-60(TB) leukemia
- Assay: NCI-60 one-dose screen, 48 h
- Condition Summary: 10 µM unless noted
Compounds without any hit were thinned out: in the full panel of roughly 83,000, 20% have a hit. Calls of active or inactive are those of the source. How the source made its calls: active means growth percent below 10; inactive means the rest.
Possible outcomes: True = active, False = inactive

{"Compound": "Fc1ccc(Nc2nc3nonc3nc2Nc2ccc(F)cc2)cc1", "Label": "True"}
{"Compound": "C1CCC([PH+](C2CCCCC2)C2CCCCC2[PH+](C2CCCCC2)C2CCCCC2)CC1.[Au].[CH-]1CCCCC1C1CCCC[N-]1 (stereo not given)", "Label": "True"}
{"Compound": "COc1ccc(NC2=NC(C)(CO)CS2)cc1 (stereo not given)", "Label": "False"}
{"Compound": "COc1c(B(O)O)cccc1-c1nc2c(F)cc3[nH]ncc3c2c2c1CCCC2", "Label": "True"}
{"Compound": "CCn1nc(-c2ccccn2)c2cccnc2c1=S", "Label": "False"}
{"Compound": "OC(c1ccccn1)C(O)c1ccccn1 (stereo not given)", "Label": "False"}
{"Compound": "COc1ccc(-c2nc(-c3nc4ccc(F)cc4[nH]3)cc3c2[nH]c2ccccc23)cc1", "Label": "False"}
{"Compound": "Fc1cc2c(cc1Cl)N(c1ncnc3ccc(-c4cnc5[nH]ncc5c4)cc13)CC2", "Label": "False"}
{"Compound": "CCCCCN1C=C/C(=C\\C(=O)N(C)c2ccc(Br)cc2)c2ccccc21", "Label": "False"}
{"Compound": "C#Cc1ccc(NC(=O)c2ccc(/C=C/C(=O)c3nccn3C)cc2)cc1", "Label": "True"}

----------
- Tested on: HL-60(TB) leukemia
- Assay: NCI-60 one-dose screen, 48 h (100 = growth as untreated, 0 = no growth, -100 = all killed)
- Condition Summary: 10 µM unless noted
Compounds without any hit were thinned out: in the full panel of roughly 83,000, 20% have a hit.
Measure Name: growth (%)

{"Compound": "COC1C(=O)CCC2(CO2)C1(O)C1(C)OC1CCC(C)C (centres undefined)", "Value": 68}
{"Compound": "CN(C)CCOc1ccc(-c2nc3ccc(-c4nc5ccc(N6CCN(C)CC6)cc5[nH]4)cc3[nH]2)cc1", "Value": 72.1}
{"Compound": "CCOC(=O)c1cc(CC)sc1NC(=O)CC(C)=O", "Value": 51.4}
{"Compound": "CC(=O)C(CO)C(=O)Nc1ccccc1 (centres undefined)", "Value": 100}
{"Compound": "C=C(C)[C@@H]1CC[C@]2(C(=O)NCC#CCN3CCN(C)CC3)CC[C@]3(C)[C@H](CC[C@@H]4[C@@](C)(CCC#N)[C@H](C(=C)C)CC[C@]43C)[C@@H]12", "Value": 10.9}
{"Compound": "CC(NNC(=S)N1CCCCCC1)c1ccc2ccccc2n1 (centres undefined)", "Value": 28.8}
{"Compound": "C(=C\\c1nc2ccccc2[nH]1)/c1nc2ccccc2[nH]1", "Value": 93.4}
{"Compound": "COc1ccc(-c2ccc(NC(=O)Nc3cccc(C(F)(F)F)c3)c(C)n2)cc1", "Value": 49.7}
{"Compound": "CC(=O)Nc1ccc2c(c1)c(NC(C)=O)nn2C(=O)Nc1ccc(Cc2ccccc2)cc1", "Value": 93.1}
{"Compound": "CC(=O)N1N=C(c2cccc(Nc3ccncc3)c2)CC1c1ccccc1 (centres undefined)", "Value": 78.9}
{"Compound": "COc1cccc(CNc2ncnc3c2ncn3C2OC(CO)C(O)C2O)c1O (centres undefined)", "Value": -47}
{"Compound": "COc1cc(-c2nc(-c3ccc(-c4nc5ccc(F)cc5[nH]4)cc3)no2)cc(OC)c1OC", "Value": 13.4}
{"Compound": "Cc1ccccc1C1=N[C@@H](Cc2ccccc2)C(=O)c2c(nc3ccccn23)N1", "Value": 125}
{"Compound": "O=C(Nc1ccc(Br)cc1)Nc1ccccc1Cl", "Value": 70.7}
{"Compound": "COc1ccc2c(c1)C(=O)/C(=C/c1cccc(OCC(=O)c3ccccc3)c1)O2", "Value": -80.5}
{"Compound": "C=C(C)[C@@H]1CC[C@]2(C(=O)N[C@H](CO)Cc3ccccc3)CC[C@]3(C)[C@H](CC[C@@H]4[C@@]5(C)CCCNC(C)(C)[C@@H]5CC[C@]43C)[C@@H]12", "Value": -73.3}
{"Compound": "O=C1c2cccc3cccc(c23)C(=O)N1N1C(=O)c2cccc3c(N4CCOCC4)ccc(c23)C1=O", "Value": 125}
{"Compound": "Nc1nc2ncc(CCNc3ccc(C(=O)NC(CCC(=O)O)C(=O)O)cc3)nc2c(=O)[nH]1 (centres undefined)", "Value": 144}
{"Compound": "CC(C)CCC(=O)[C@@H](C)[C@H]1[C@@H](OC2OCC(O)C(O)C2NS(C)(=O)=O)C[C@H]2[C@@H]3CC=C4C[C@@H](O)CC[C@]4(C)[C@H]3CC[C@]12C (some centres undefined)", "Value": 7.32}
{"Compound": "C#Cc1c2c(c(OC)c3c1OCO3)[C@H]([C@H]1OC(=O)c3c1ccc(OC)c3OC)N(C)CC2", "Value": 72.5}
{"Compound": "Cc1c(C)c(N2C(=O)C=CC2=O)c(C)c(C)c1N1C(=O)C=CC1=O", "Value": 57.5}
{"Compound": "Cn1ncc2c(Nc3ccc(O)cc3)nc(Cl)nc21", "Value": 95.1}
{"Compound": "N#Cc1cc(-c2nc3ccccc3s2)c(=O)n(NS(=O)(=O)c2ccc(Cl)cc2)c1N", "Value": 103}
{"Compound": "Cc1nc(/N=C(\\N)NC(=O)Nc2cccc([N+](=O)[O-])c2)sc1C", "Value": 39.5}
{"Compound": "Cn1ccc(Cc2cnc(N)s2)n1", "Value": 94.2}
{"Compound": "CCNC(=O)c1ccc2c(c1)nc(-c1ccc(Cl)cc1)n2-c1cc(C(C)(C)C)[nH]n1", "Value": 4.73}
{"Compound": "CCN1CCN(CCC(=O)Nc2cccc(-n3cc(-c4ccncc4)c(-c4ccc(Cl)c(OC)c4)n3)c2)CC1", "Value": -42.1}
{"Compound": "COc1ccc2nc(NCCCNCCO)c3sc4ccc(F)cc4c(=O)c3c2c1", "Value": 25}
{"Compound": "CCCCCCCCCCCCCCCCCCOc1cccc(CCOP(=O)(O)OCC[N+](C)(C)C)c1", "Value": 73.4}
{"Compound": "COc1ccc(C(=O)/C=C/c2c(C(F)(F)F)nc3ccccn23)cc1OC", "Value": 2.72}
{"Compound": "O=C(N[C@@H]1CCCc2ccccc21)[C@H](CCC(=O)N1CCN(C2CCCCC2)CC1)N1C(=O)[C@@H](N2C(=O)OC[C@@H]2c2ccccc2)[C@H]1/C=C/c1ccccc1", "Value": -8.1}
{"Compound": "C[C@]12C[C@H]1CC[C@]1(C)[C@@H]2CC[C@@]23C[C@H](CC[C@H]21)[C@@](O)(CO)C3", "Value": 103}
{"Compound": "O=C(CSC1CCc2ccccc21)N/N=C/c1ccccc1O (centres undefined)", "Value": -12}
{"Compound": "COc1cc2c(cc1-c1c(C)noc1C)ncc1nc(C3CCOCC3)n([C@H](C)COC(F)F)c12", "Value": 27.5}
